Source of measurements: paper PMC3479139

Recorded pIC50 by entry
- TARGET OR TEST SYSTEM: APE1 (Homo sapiens, UniProt P27695)
- Construct: made in house
- Sequence (P27695 whole entry): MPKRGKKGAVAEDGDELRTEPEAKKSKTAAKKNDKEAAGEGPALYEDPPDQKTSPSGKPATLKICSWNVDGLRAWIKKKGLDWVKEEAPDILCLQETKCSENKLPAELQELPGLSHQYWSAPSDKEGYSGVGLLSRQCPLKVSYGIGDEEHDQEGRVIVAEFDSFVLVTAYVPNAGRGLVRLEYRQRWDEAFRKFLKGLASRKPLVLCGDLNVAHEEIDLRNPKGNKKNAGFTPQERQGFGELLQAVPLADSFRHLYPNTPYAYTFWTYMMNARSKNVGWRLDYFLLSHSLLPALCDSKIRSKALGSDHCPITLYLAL
- ASSAY SUMMARY: Fluorogenic kinetic qHTS APE1 incision assay (primary screen and retest of cherrypicked samples);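 further: purified APE1 cleaving a fluorophore/dark-quencher labelled 17-mer duplex DNA bearing a tetrahydrofuran AP site, fluorescence rise followed kinetically over the first 2 min, inhibition normalized to controls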
- Format: biochemical
- APPLIED CONDITIONS: initial quantitative high-throughput screen; read-out: APE1 qHTS IC50
pIC50: −log10 of the molar value.
OBSERVED PROPERTY: pIC50

> print(dat)
                                   compound                target.or.test.system  observed.property  reported.measurement
1     CC(=O)c1ccccc1NS(=O)(=O)c1cccc2nsnc12  APE1 (Homo sapiens, UniProt P27695)              pIC50                  5.28
2       COc1cc(/C=N/Nc2ccc(C(=O)O)cc2)ccc1O  APE1 (Homo sapiens, UniProt P27695)              pIC50                  4.85
3  O=C(Nc1ccc2nc(-c3ccco3)c(-c3ccco3)nc2c1)N1CCCCCC1  APE1 (Homo sapiens, UniProt P27695)              pIC50                  5.46
4  CC(C(=O)O)N1C(=O)/C(=C/C=C/c2ccco2)SC1=S (stereo not drawn)  APE1 (Homo sapiens, UniProt P27695)              pIC50                  5.55
5  CC(=O)NC1=NC(=O)/C(=C/c2cc(C)n(-c3cccc(C(=O)O)c3)c2C)S1  APE1 (Homo sapiens, UniProt P27695)              pIC50                  5.46
6  COc1ccc(OCCOc2ccc(/C=C3\C(=N)N4N=C(C)SC4=NC3=O)cc2)cc1  APE1 (Homo sapiens, UniProt P27695)              pIC50                  5.02
7  CC1(C)CC2CC(C)(CN2C(=O)COC(=O)c2ccc(O)cc2O)C1 (stereo not drawn)  APE1 (Homo sapiens, UniProt P27695)              pIC50                  4.97
8              O=C1CC(=O)N(Cc2ccco2)C(=S)N1  APE1 (Homo sapiens, UniProt P27695)              pIC50                  4.95
9  O=C1NN(c2ccccc2)C(=O)/C1=C/c1ccc(-c2ccc(Cl)c(C(=O)O)c2)o1  APE1 (Homo sapiens, UniProt P27695)              pIC50                  4.90

---

This section presents compounds with their documented IC50 values.
- TARGET OR TEST SYSTEM: E. coli Endo IV (Escherichia coli)
- Construct: made in house
- ASSAY SUMMARY: E. coli Endo IV profiling counterscreen;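 further: selectivity counterscreen of candidate APE1 inhibitors against the bacterial endonuclease Endo IV, run in the same assay format as the primary APE1 high-throughput screen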
- Type: biochemical
- APPLIED CONDITIONS: read-out: EndoIV IC50
OBSERVED PROPERTY: IC50

> print(dat)
                            compound.string  reported.measurement
1  CNS(=O)(=O)c1cccc(C(=O)OCC(=O)c2ccc[nH]2)c1               > 57 µM
2     COc1ccccc1NC(=O)COC(=O)c1cc2c(s1)CCC2               18.2 µM
3         CCCSC1=N/C(=C\C=C\c2ccco2)C(=O)S1               > 57 µM
4  O=C(CCCN1C(=O)/C(=C/c2ccco2)SC1=S)Nc1ccccc1C(=O)O               > 57 µM
5     Cn1cnnc1SCC(=O)Nc1ncc([N+](=O)[O-])s1               > 57 µM
